Origin of measurements: patent US10285986B2

test: Solubility in organic solvents; assay type: physicochemical; settings: organic solvent or mixture, thermodynamic from solid; CH2Cl2; Table 1; read-out: CH2Cl2 solubility
property.measured: log10 of solubility (log10 of the value in mM)
All values: base-10 log of solubility in mM.

// known answers, use as guide
1) CCCCn1c2c(c(C)cc1=O)C(=O)c1c(C)cc(=O)[nH]c1C2=O [Compound 4-22]	0.88
2) Cc1cc(=O)[nH]c2c1C(=O)c1c(C)cc(=O)n(CCCO)c1C2=O [Compound 9-281]	-0.52
3) CCn1c2c(c(C)cc1=O)C(=O)c1c(C)cc(=O)[nH]c1C2=O [Compound 109]	0.98
4) Cc1cc(=O)[nH]c2c1C(=O)c1c(C)cc(=O)n(CCC(C)(C)C)c1C2=O [Compound 9-251]	1.49
5) Cc1cc(=O)[nH]c2c1C(=O)c1c(C)cc(=O)n(CC(C)(C)C)c1C2=O [Compound 9-253]	1.36

Lab note: each compound below needs its log10 of solubility filled in.
1. CCCCn1c2c(c(C)cc1=O)C(=O)c1c(CCC)cc(=O)[nH]c1C2=O [Compound 4-27]
2. CCCn1c2c(c(C)cc1=O)C(=O)c1c(C)cc(=O)[nH]c1C2=O [Compound 10-41]
3. Cc1cc(=O)n(C)c2c1C(=O)c1c(C)cc(=O)n(C)c1C2=O [SCH, reference compound]

**A:**
1. 1.23
2. 0.59
3. 1.40

Lab note: each compound below needs its log10 of solubility filled in.
1. CCCCCCn1c2c(c(C)cc1=O)C(=O)c1c(C)cc(=O)[nH]c1C2=O [Compound 9-257]
2. CCCc1cc(=O)n(C)c2c1C(=O)c1c(C)cc(=O)[nH]c1C2=O [Compound 4-9]
3. CCCCn1c2c(c(CCC)cc1=O)C(=O)c1c(C)cc(=O)[nH]c1C2=O [Compound 4-26]
4. CCCCCn1c2c(c(C)cc1=O)C(=O)c1c(C)cc(=O)[nH]c1C2=O [Compound 9-255]
5. CCc1cc(=O)n(C)c2c1C(=O)c1c(C)cc(=O)[nH]c1C2=O [Compound 107]

**A:**
[1.51, 0.79, 1.38, 1.34, 0.74]

Lab note: each compound below needs its log10 of solubility filled in.
1. Cc1cc(=O)[nH]c2c1C(=O)c1c(C)cc(=O)n(CC(C)C)c1C2=O [Compound 87]
2. CCc1cc(=O)[nH]c2c1C(=O)c1c(CC)cc(=O)n(C)c1C2=O [Compound 4-29]
3. CCc1cc(=O)[nH]c2c1C(=O)c1c(C)cc(=O)n(C)c1C2=O [Compound 4-11]
4. CCCCn1c2c(c(CCC)cc1=O)C(=O)c1c(CCC)cc(=O)[nH]c1C2=O [Compound 4-28]
5. CCCc1cc(=O)[nH]c2c1C(=O)c1c(C)cc(=O)n(C)c1C2=O [Compound 4-12]
6. Cc1cc(=O)[nH]c2c1C(=O)c1c(C)cc(=O)n(CCC(C)C)c1C2=O [Compound 9-249]
7. Cc1cc(=O)[nH]c2c1C(=O)c1c(C)cc(=O)n(C)c1C2=O [DNQ, Deoxynyboquinone, reference compound]

**A:**
1: 2.26; 2: 1.00; 3: 1.04; 4: 1.54; 5: 0.30; 6: 0.99; 7: -0.15

----------
test: Solubility in organic solvents; assay type: physicochemical; conditions: organic solvent or mixture, thermodynamic from solid; 2:1 CH2Cl2:MeOH; Table 4.3; read-out: Solubility in 2:1 CH2Cl2:MeOH
property.measured: solubility (mM)
One number for each entry, in mM.

// known answers, use as guide
1) Cc1cc(=O)[nH]c2c1C(=O)c1c(C)cc(=O)n(CC(C)C)c1C2=O	140
2) Cc1cc(=O)[nH]c2c1C(=O)c1c(C)cc(=O)n(CC(C)(C)C)c1C2=O	100

Lab note: each compound below needs its solubility filled in.
1. CCCCCn1c2c(c(C)cc1=O)C(=O)c1c(C)cc(=O)[nH]c1C2=O
2. CCCCn1c2c(c(C)cc1=O)C(=O)c1c(CCC)cc(=O)[nH]c1C2=O
3. Cc1cc(=O)[nH]c2c1C(=O)c1c(C)cc(=O)n(CCCO)c1C2=O

**A:**
95
49
11

----------
experiment: Aqueous solubility in pH 7.4 PBS by LC-MS; assay type: physicochemical; conditions: phosphate buffered saline, pH 7.4, aqueous buffer, thermodynamic from solid, pH 7.4 PBS
property.measured: solubility at 30 min (µM)
One number for each entry, in µM.

Record summary for Cc1cc(=O)[nH]c2c1C(=O)c1c(C)cc(=O)n(C)c1C2=O [DNQ, Deoxynyboquinone, reference compound] : reported solubility at 30 min = 115

----------
Please respond with reported Solubility in CH2Cl2 for every item in the list.
Assay: Solubility in organic solvents
Format: physicochemical
Conditions: CH2Cl2; Table 4.3
Description: The solubility of DNQ derivatives in organic solvents was determined by measuring the amount of a given solvent required to dissolve a known amount of compound. Solvent was added to the compound in 50 μL aliquots and the slurry was sonicated. […] Solubility was assessed in DMSO, dichloromethane, and 33% methanol in dichloromethane (FIGS. 9, 10, and 11, respectively).

// known answers, use as guide
1) CCc1cc(=O)[nH]c2c1C(=O)c1c(C)cc(=O)n(C)c1C2=O [Compound 4-11]	11 mM
2) CCCCCCn1c2c(c(C)cc1=O)C(=O)c1c(C)cc(=O)[nH]c1C2=O [Compound 9-257]	32 mM
3) CCc1cc(=O)n(C)c2c1C(=O)c1c(C)cc(=O)[nH]c1C2=O [Compound 107]	5.5 mM
4) CCCCn1c2c(c(C)cc1=O)C(=O)c1c(CCC)cc(=O)[nH]c1C2=O [Compound 4-27]	17 mM
5) Cc1cc(=O)[nH]c2c1C(=O)c1c(C)cc(=O)n(CC(C)C)c1C2=O [Compound 87]	180 mM

Lab note: each molecule below needs its Solubility in CH2Cl2 filled in.
1. CCCn1c2c(c(C)cc1=O)C(=O)c1c(C)cc(=O)[nH]c1C2=O [Compound 10-41]
2. CCCCn1c2c(c(CCC)cc1=O)C(=O)c1c(CCC)cc(=O)[nH]c1C2=O [Compound 4-28]
3. CCc1cc(=O)[nH]c2c1C(=O)c1c(CC)cc(=O)n(C)c1C2=O [Compound 4-29]
4. CCCCCn1c2c(c(C)cc1=O)C(=O)c1c(C)cc(=O)[nH]c1C2=O [Compound 9-255]
5. CCCc1cc(=O)[nH]c2c1C(=O)c1c(C)cc(=O)n(C)c1C2=O [Compound 4-12]
6. Cc1cc(=O)[nH]c2c1C(=O)c1c(C)cc(=O)n(CCCO)c1C2=O [Compound 9-281]
7. CCCc1cc(=O)n(C)c2c1C(=O)c1c(C)cc(=O)[nH]c1C2=O [Compound 4-9]

**A:**
1. 3.9 mM
2. 35 mM
3. 10 mM
4. 22 mM
5. 2.0 mM
6. 0.3 mM
7. 6.1 mM

Lab note: each molecule below needs its Solubility in CH2Cl2 filled in.
1. Cc1cc(=O)[nH]c2c1C(=O)c1c(C)cc(=O)n(CCC(C)C)c1C2=O [Compound 9-249]
2. Cc1cc(=O)[nH]c2c1C(=O)c1c(C)cc(=O)n(C)c1C2=O [DNQ, Deoxynyboquinone, reference compound]
3. Cc1cc(=O)[nH]c2c1C(=O)c1c(C)cc(=O)n(CC(C)(C)C)c1C2=O [Compound 9-253]

**A:**
9.7 mM
0.7 mM
23 mM

----------
target: NQO1 (Homo sapiens, UniProt P15559); experiment: NQO1 enzymatic measurements in vitro; assay type: biochemical; conditions: 1 μM substrate
Sequence (P15559 whole entry): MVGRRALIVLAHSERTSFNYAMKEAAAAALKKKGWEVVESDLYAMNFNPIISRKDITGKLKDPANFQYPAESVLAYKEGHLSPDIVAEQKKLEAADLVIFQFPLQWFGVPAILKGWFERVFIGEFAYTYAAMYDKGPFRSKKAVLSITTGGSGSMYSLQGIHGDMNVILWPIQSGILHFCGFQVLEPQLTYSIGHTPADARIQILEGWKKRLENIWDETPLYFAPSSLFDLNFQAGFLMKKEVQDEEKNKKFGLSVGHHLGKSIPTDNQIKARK
Quick rule: NQO1 Initial Velocity @ 1 μM of at least 200 means condition met, below that means condition not met.

1. CCc1cc(=O)n(C)c2c1C(=O)c1c(C)cc(=O)[nH]c1C2=O	condition met
2. CCc1cc(=O)[nH]c2c1C(=O)c1c(CC)cc(=O)n(C)c1C2=O	condition met
3. CC1(C)CCC2=C(O1)c1ccccc1C(=O)C2=O [β-lap, β-lapachone, reference compound]	condition not met
4. CCCCn1c2c(c(CCC)cc1=O)C(=O)c1c(C)cc(=O)[nH]c1C2=O	condition met
5. Cc1cc(=O)n(C)c2c1C(=O)c1c(C)cc(=O)n(C)c1C2=O [SCH, reference compound]	condition not met

**Q:** Determine whether measured NQO1 Initial Velocity @ 1 μM meets or exceeds 200 for "CCCc1cc(=O)n(C)c2c1C(=O)c1c(C)cc(=O)[nH]c1C2=O"
**A:** condition met

**Q:** Determine whether measured NQO1 Initial Velocity @ 1 μM meets or exceeds 200 for "CCCCn1c2c(c(CCC)cc1=O)C(=O)c1c(CCC)cc(=O)[nH]c1C2=O"
**A:** condition not met
